Values from patent US20240182536A1

Reported Activity, No BP, DF-500000 values are given for each entry in this list.
- measurement target: T1, IL-18 receptors on HEK-Blue IL-18 reporter cells (UniProt Q13478 19-541; O95256 20-599, limits assumed); further: unit not given here
- T1 sequence (looked up) 1: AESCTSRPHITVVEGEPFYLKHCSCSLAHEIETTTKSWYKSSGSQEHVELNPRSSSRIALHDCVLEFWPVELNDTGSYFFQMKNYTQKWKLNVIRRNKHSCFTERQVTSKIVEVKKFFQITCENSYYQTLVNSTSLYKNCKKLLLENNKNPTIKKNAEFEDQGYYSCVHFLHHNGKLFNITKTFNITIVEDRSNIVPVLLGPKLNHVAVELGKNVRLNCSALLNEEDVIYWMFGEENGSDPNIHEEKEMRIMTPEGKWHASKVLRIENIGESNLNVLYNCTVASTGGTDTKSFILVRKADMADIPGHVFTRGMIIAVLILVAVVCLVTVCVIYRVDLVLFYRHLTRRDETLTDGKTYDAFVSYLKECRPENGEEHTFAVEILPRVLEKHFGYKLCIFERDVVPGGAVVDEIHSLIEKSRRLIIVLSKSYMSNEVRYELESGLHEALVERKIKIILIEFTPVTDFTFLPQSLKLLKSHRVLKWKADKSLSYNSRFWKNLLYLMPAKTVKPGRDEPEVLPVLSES
- T1 sequence (looked up) 2: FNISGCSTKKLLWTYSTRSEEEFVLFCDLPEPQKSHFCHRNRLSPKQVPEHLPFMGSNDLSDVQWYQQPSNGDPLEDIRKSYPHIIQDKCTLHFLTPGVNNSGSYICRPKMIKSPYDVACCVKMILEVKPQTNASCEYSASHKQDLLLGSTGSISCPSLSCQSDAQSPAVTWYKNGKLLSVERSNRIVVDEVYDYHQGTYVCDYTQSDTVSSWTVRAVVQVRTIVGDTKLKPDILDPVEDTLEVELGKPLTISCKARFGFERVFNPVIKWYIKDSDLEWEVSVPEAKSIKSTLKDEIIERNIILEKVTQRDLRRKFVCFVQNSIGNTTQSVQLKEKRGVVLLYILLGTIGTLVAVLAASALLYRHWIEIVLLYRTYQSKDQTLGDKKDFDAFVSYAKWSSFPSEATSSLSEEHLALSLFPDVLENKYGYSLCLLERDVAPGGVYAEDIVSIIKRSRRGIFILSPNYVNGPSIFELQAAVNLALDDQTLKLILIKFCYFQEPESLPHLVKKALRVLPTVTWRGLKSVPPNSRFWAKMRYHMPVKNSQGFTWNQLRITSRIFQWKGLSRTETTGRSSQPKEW
- assay method text: cell-based or functional assay
property: Activity, No BP, DF-500000

IL-18 variant G3P, E6V, K53A, D54W, S55P, T63S, N91L, R104K (ligand) YFPKLVSKLSVIRNLNDQVLFIDQGNRPLFEDMTDSDMRDNAPRTIFIISMYAWPQPRGMAVSISVKSEKISTLSSENKIISFKEMNPPDLIKDTKSDIIFFQKSVPGHDNKMQFESSSYEGYFLASEKERDLFKLILKKEDELGDRSIMFTVQNED
0.52
IL-18 variant G3Q, E6S, S55V, T63A, N91T (ligand) YFQKLSSKLSVIRNLNDQVLFIDQGNRPLFEDMTDSDMRDNAPRTIFIISMYKDVQPRGMAVAISVKSEKISTLSSENKIISFKEMNPPDTIKDTKSDIIFFQRSVPGHDNKMQFESSSYEGYFLASEKERDLFKLILKKEDELGDRSIMFTVQNED
1.84
IL-18 variant G3P, E6S, K53R, D54Y, S55P, T63I, N91K (ligand) YFPKLSSKLSVIRNLNDQVLFIDQGNRPLFEDMTDSDMRDNAPRTIFIISMYRYPQPRGMAVIISVKSEKISTLSSENKIISFKEMNPPDKIKDTKSDIIFFQRSVPGHDNKMQFESSSYEGYFLASEKERDLFKLILKKEDELGDRSIMFTVQNED
0.08
